Origin of the recorded values: patent US6153611A

Biological target: Dopamine D2 (Rattus norvegicus, UniProt P61169)
Construct: The corpus striatum was crudely dissected and frozen on dry ice
Sequence (P61169 whole entry): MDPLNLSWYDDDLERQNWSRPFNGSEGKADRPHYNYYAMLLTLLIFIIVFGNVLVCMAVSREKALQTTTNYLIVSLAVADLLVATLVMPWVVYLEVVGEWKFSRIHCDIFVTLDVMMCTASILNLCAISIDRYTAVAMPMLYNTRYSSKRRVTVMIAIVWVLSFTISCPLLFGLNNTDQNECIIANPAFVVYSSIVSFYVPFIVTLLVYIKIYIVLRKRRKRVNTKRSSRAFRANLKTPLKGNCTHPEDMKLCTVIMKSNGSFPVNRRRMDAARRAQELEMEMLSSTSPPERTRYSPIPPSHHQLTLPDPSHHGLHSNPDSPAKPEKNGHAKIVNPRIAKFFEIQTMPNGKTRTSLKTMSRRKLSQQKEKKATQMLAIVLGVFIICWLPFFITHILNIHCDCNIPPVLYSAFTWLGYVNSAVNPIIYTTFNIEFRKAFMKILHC
Experiment: Dopamine D2 Binding Assay ([3H]Spiperone, corpus striatum membranes)
Details: [3H]Spiperone 0.1 nM, 37° C., 15 min
Description: Activity at D2 sites is measured using the screening process set out in Example 67. Dopamine D2 Binding Assay Dopamine D2 affinity was determined according to the procedures of Burt, Creese and Snyder [Molecular Pharmacology 12,800 (1976); Science 196, 326 (1977); Science 192, 481 (1976)]. Briefly, male Sprague-Dawley rats (Charles River) were decapitated, brains rapidly removed and chilled in ice-cold 50 mM Hepes/KOH buffer (pH 7.4, 20° C.). […]
pIC50: −log10 of the molar value.
Observable: pIC50

Each of the following entries comes with a recorded value; kindly state pIC50 for each.
1. Fc1ccc(C2=CCC(N3CCC(Cc4ccccc4)CC3)CC2)cc1 (stereo not drawn)
2. Fc1ccc(C2=CCC(N3CCN(Cc4cccs4)CC3)CC2)cc1 (stereo not drawn)
3. Fc1ccc([C@H]2CC[C@H](N3CCN(Cc4ccc5ccccc5n4)CC3)CC2)cc1
4. COc1ccc(C2=CCC(N3CCN(Cc4ccccc4)CC3)CC2)cc1 (stereo not drawn)

# output
1. 5.00 to 6.00
2. 5.00 to 6.00
3. 5.00 to 6.00
4. 5.00 to 6.00

---

Biological target: Dopamine D2 (Rattus norvegicus)
Construct: The corpus striatum was crudely dissected and frozen on dry ice
Assay: Dopamine D2 Binding Assay ([3H]Spiperone, corpus striatum membranes)
Conditions: [3H]Spiperone 0.1 nM, 37° C., 15 min
Experimental: Activity at D2 sites is measured using the screening process set out in Example 67. Dopamine D2 Binding Assay Dopamine D2 affinity was determined according to the procedures of Burt, Creese and Snyder [Molecular Pharmacology 12,800 (1976); Science 196, 326 (1977); Science 192, 481 (1976)]. Briefly, male Sprague-Dawley rats (Charles River) were decapitated, brains rapidly removed and chilled in ice-cold 50 mM Hepes/KOH buffer (pH 7.4, 20° C.). […]
pIC50: −log10 of the molar value.
For each entry below, report its pIC50 value.

# Molecule, pIC50
records = [
    ("Fc1ccc(F)c(CC2CCN(C3CC=C(c4ccc5c(c4)OCO5)CC3)CC2)c1 (stereo not shown) [Example 54]", "5.00 to 6.00"),
]

Each of the following entries comes with a recorded value; kindly state pIC50 for each.
1. C1=C(Cc2ccccc2)CCC(N2CCN(Cc3ccccc3)CC2)C1 (stereo not shown) [Example 43]
2. Fc1ccc(F)c(CC2CCN(C3CC=C(c4ccc(F)c(F)c4)CC3)CC2)c1 (stereo not shown) [Example 55]
3. Clc1ccc2[nH]cc(C3=CCC(N4CCN(Cc5ccccc5)CC4)CC3)c2c1 (stereo not shown) [Example 50]
4. Clc1ccccc1CN1CCN(C2CC=C(c3ccc4c(c3)OCO4)CC2)CC1 (stereo not shown) [Example 57]
5. Fc1ccc(CN2CCN(C3CC=C(c4ccc(C(F)(F)F)cc4)CC3)CC2)cc1 (stereo not shown) [Example 42]

# output
1: 5.00 to 6.00; 2: 5.00 to 6.00; 3: 4.30 to 5.00; 4: 5.00 to 6.00; 5: < 4.00

Each of the following entries comes with a recorded value; kindly state pIC50 for each.
1. Fc1ccc(CN2CCN(C3CC=C(c4ccc(F)cc4)CC3)CC2)cc1 (stereo not shown) [Example 41]
2. COc1cccc(CN2CCN(C3CC=C(c4ccc(F)cc4)CC3)CC2)c1 (stereo not shown) [Example 60]

# output
1: 5.00 to 6.00; 2: 5.00 to 6.00
